test system: human induced pluripotent stem cell-derived cardiomyocytes (hiPSC-CMs); conditions: 20% increase in FPDc; median across qualified studies
REPORTED_ENDPOINT: FPDc20: median (µM)

molecule="COc1ccccc1OCC(O)CN1CCN(CC(=O)Nc2c(C)cccc2C)CC1 (stereo not shown)" obs_value=10
molecule=COc1c(N2C[C@@H]3CCCN[C@@H]3C2)c(F)cc2c(=O)c(C(=O)O)cn(C3CC3)c12 obs_value=100
molecule="O=C(NCC1CCCCN1)c1cc(OCC(F)(F)F)ccc1OCC(F)(F)F (stereo not shown) [Flecainide]" obs_value=1
molecule=C=C[C@H]1C[N@@]2CC[C@H]1C[C@@H]2[C@@H](O)c1ccnc2ccc(OC)cc12 obs_value=1

====

system: Stanford Cardiovascular Institute [SCI] human stem cell-derived cardiomyocytes; details: human
REPORTED_ENDPOINT: FPDc20 concentration (20% increase in FPDc) (µM)

compound=C=C[C@H]1C[N@@]2CC[C@H]1C[C@@H]2[C@@H](O)c1ccnc2ccc(OC)cc12 obs_value=1
compound="COc1ccccc1OCC(O)CN1CCN(CC(=O)Nc2c(C)cccc2C)CC1 (stereo not shown)" obs_value=10
compound=COc1c(N2C[C@@H]3CCCN[C@@H]3C2)c(F)cc2c(=O)c(C(=O)O)cn(C3CC3)c12 obs_value=30
compound="O=C(NCC1CCCCN1)c1cc(OCC(F)(F)F)ccc1OCC(F)(F)F (stereo not shown) [Flecainide]" obs_value=1
